Assay Protocol: soluble on expression in E. coli; label from the status in PepcDB or PDB records

Sequence String: MWRTEMRKFLVVLDDSRECLNAMRFAAMRAAHTGGGVAILSIIPPDEFNHWIGVGEVMREEARERIHAHFEVFAKWMRDKQGVEPELVIREGEAVPEIIAHVQEDPEIGVLVLGAGTDKKGPGPLVSQLSRSSGSLPIPITIVPGDLSKEKLEAIT
soluble on expression in E. coli: not soluble
//
Sequence String: ADRHYSPIDRFLLQADSALRTLLPFSGQPARPSPAIVEPDGELSEEDTRHIAGLMRINHTGEVCAQALYQGQSLTAKLPEVREAMEEAAEEEIDHLAWCEQRIRQLGSRPSVLNPIFYGLSFGVGAAAGLVSDRVSLGFVAATEDQVCKHLDEHLAQIPQEDRKSRAILEQMRIDEEQHSSNALAAGGLRFPAPVKLGMSLLAKV
soluble on expression in E. coli: not soluble
